Tested on: TC-YIK (Other Solid Carcinomas)
Assay: combination Emax (second highest fraction inhibited in the dose matrix, 72 h); higher = more inhibition; extreme values may be limits of the assay

{"COMPOUND": "COc1nnc2ccc(N3CCC(c4ccc(OCCN5CCN(C)C(=O)[C@H]5C)cc4)CC3)nn12 [AZD5153] + CCN(CCO)CCCOc1ccc2c(Nc3cc(CC(=O)Nc4cccc(F)c4)[nH]n3)ncnc2c1 [AZD2811] (first compound max 1 µM, 7x7, partner max 1 µM)", "TARGET": "TC-YIK (Other Solid Carcinomas)", "combination Emax": 0.915}
{"COMPOUND": "COc1nnc2ccc(N3CCC(c4ccc(OCCN5CCN(C)C(=O)[C@H]5C)cc4)CC3)nn12 [AZD5153] + C[C@@H]1COCCN1C2=NC(=NC(=C2)C3(CC3)[S@](=N)(=O)C)C4=C5C=CNC5=NC=C4 [AZD6738] (first compound max 1 µM, 7x7, partner max 10 µM)", "TARGET": "TC-YIK (Other Solid Carcinomas)", "combination Emax": 0.965}
{"COMPOUND": "COc1nnc2ccc(N3CCC(c4ccc(OCCN5CCN(C)C(=O)[C@H]5C)cc4)CC3)nn12 [AZD5153] + Cc1c2c(nn1C)CSCc1cc(n(C)n1)CSc1cc(c3ccccc3c1)OCCCc1c(C(=O)O)n(C)c3c-2c(Cl)ccc13 [AZD5991] (first compound max 1 µM, 7x7, partner max 1 µM)", "TARGET": "TC-YIK (Other Solid Carcinomas)", "combination Emax": 0.98}
{"COMPOUND": "C=CCn1c(=O)c2cnc(Nc3ccc(N4CCN(C)CC4)cc3)nc2n1-c1cccc(C(C)(C)O)n1 [AZD1775] + CCc1c2c(nc3ccc(O)cc13)-c1cc3c(c(=O)n1C2)COC(=O)[C@]3(O)CC [SN-38] (first compound max 1 µM, partner max 0.3 µM)", "TARGET": "TC-YIK (Other Solid Carcinomas)", "combination Emax": 1}
{"COMPOUND": "Cc1nc(Nc2ncc(C(=O)Nc3c(C)cccc3Cl)s2)cc(N2CCN(CCO)CC2)n1 [Dasatinib] + CC(=O)Nc1cccc(-n2c(=O)n(C3CC3)c(=O)c3c(Nc4ccc(I)cc4F)n(C)c(=O)c(C)c32)c1 [Trametinib] (first compound max 2 µM, 7x7, partner max 1 µM)", "TARGET": "TC-YIK (Other Solid Carcinomas)", "combination Emax": 0.638}

---

Test system: HCC1143 (Breast Carcinoma)
Assay: combination Emax (second highest fraction inhibited in the dose matrix, 72 h); higher = more inhibition; extreme values may be limits of the assay
Lab note: compare combination Emax against 0.3. Equal or greater, write Condition met. Smaller, write Condition not met.

{"MOLECULE": "CC1(C)CCC(CN2CCN(c3ccc(C(=O)NS(=O)(=O)c4ccc(NCC5CCOCC5)c([N+](=O)[O-])c4)c(Oc4cnc5[nH]ccc5c4)c3)CC2)=C(c2ccc(Cl)cc2)C1 [Venetoclax] + C[C@@H](Nc1cc(F)cc(F)c1)c1cc(C(=O)N(C)C)cc2c(=O)cc(N3CCOCC3)oc12 [AZD8186] (first compound max 1 µM, 7x7, partner max 3 µM)", "CATEGORY": "Condition not met"}
{"MOLECULE": "CC(=O)c1c(C)c2cnc(Nc3ccc(N4CCNCC4)cn3)nc2n(C2CCCC2)c1=O [Palbociclib] + CC1(C)CCC(CN2CCN(c3ccc(C(=O)NS(=O)(=O)c4ccc(NCC5CCOCC5)c([N+](=O)[O-])c4)c(Oc4cnc5[nH]ccc5c4)c3)CC2)=C(c2ccc(Cl)cc2)C1 [Venetoclax] (first compound max 10 µM, 7x7, partner max 1 µM)", "CATEGORY": "Condition not met"}
{"MOLECULE": "CC1(C)CCC(CN2CCN(c3ccc(C(=O)NS(=O)(=O)c4ccc(NCC5CCOCC5)c([N+](=O)[O-])c4)c(Oc4cnc5[nH]ccc5c4)c3)CC2)=C(c2ccc(Cl)cc2)C1 [Venetoclax] + CN(C)CCCOc1ccc(-c2ccc3ncc4c(c3c2)n(C2CCOCC2)c(=O)n4C)cn1 [AZD0156] (first compound max 1 µM, 7x7, partner max 1 µM)", "CATEGORY": "Condition not met"}
{"MOLECULE": "COc1nnc2ccc(N3CCC(c4ccc(OCCN5CCN(C)C(=O)[C@H]5C)cc4)CC3)nn12 [AZD5153] + C=CCn1c(=O)c2cnc(Nc3ccc(N4CCN(C)CC4)cc3)nc2n1-c1cccc(C(C)(C)O)n1 [AZD1775] (first compound max 1 µM, partner max 1 µM)", "CATEGORY": "Condition met"}
{"MOLECULE": "CN(CCO)CC[C@H](CSc1ccccc1)Nc1ccc(S(=O)(=O)NC(=O)c2ccc(N3CCC([C@@H](O)c4ccccc4-c4ccc(Cl)cc4)CC3)cc2)cc1S(=O)(=O)C(F)(F)F [AZD4320] + CN(C)CCCOc1ccc(-c2ccc3ncc4c(c3c2)n(C2CCOCC2)c(=O)n4C)cn1 [AZD0156] (first compound max 1 µM, 7x7, partner max 1 µM)", "CATEGORY": "Condition not met"}
{"MOLECULE": "COc1cccc(OCCCN)c1-c1cc(Nc2cnc(C#N)cn2)n[nH]1 [Prexasertib] + C[C@@H]1COCCN1C2=NC(=NC(=C2)C3(CC3)[S@](=N)(=O)C)C4=C5C=CNC5=NC=C4 [AZD6738] (first compound max 1 µM, 7x7, partner max 10 µM)", "CATEGORY": "Condition met"}
{"MOLECULE": "COc1cccc(OCCCN)c1-c1cc(Nc2cnc(C#N)cn2)n[nH]1 [Prexasertib] + O=C(c1cc(Cc2n[nH]c(=O)c3ccccc23)ccc1F)N1CCN(C(=O)C2CC2)CC1 [Olaparib] (first compound max 1 µM, 7x7, partner max 10 µM)", "CATEGORY": "Condition met"}
{"MOLECULE": "CN(CCO)CC[C@H](CSc1ccccc1)Nc1ccc(S(=O)(=O)NC(=O)c2ccc(N3CCC([C@@H](O)c4ccccc4-c4ccc(Cl)cc4)CC3)cc2)cc1S(=O)(=O)C(F)(F)F [AZD4320] + Cn1cnc2c(F)c(Nc3ccc(Br)cc3Cl)c(C(=O)NOCCO)cc21 [Selumetinib] (first compound max 1 µM, 7x7, partner max 3 µM)", "CATEGORY": "Condition met"}
{"MOLECULE": "CCN(CCO)CCCOc1ccc2c(Nc3cc(CC(=O)Nc4cccc(F)c4)[nH]n3)ncnc2c1 [AZD2811] + C=CCn1c(=O)c2cnc(Nc3ccc(N4CCN(C)CC4)cc3)nc2n1-c1cccc(C(C)(C)O)n1 [AZD1775] (first compound max 1 µM, partner max 1 µM)", "CATEGORY": "Condition met"}
{"MOLECULE": "Cc1c2c(nn1C)CSCc1cc(n(C)n1)CSc1cc(c3ccccc3c1)OCCCc1c(C(=O)O)n(C)c3c-2c(Cl)ccc13 [AZD5991] + CC1(C)CCC(CN2CCN(c3ccc(C(=O)NS(=O)(=O)c4ccc(NCC5CCOCC5)c([N+](=O)[O-])c4)c(Oc4cnc5[nH]ccc5c4)c3)CC2)=C(c2ccc(Cl)cc2)C1 [Venetoclax] (first compound max 1 µM, 7x7, partner max 1 µM)", "CATEGORY": "Condition not met"}
